Test system: SNB-19
Protocol: NCI tumour cell line growth inhibition, 48 h
The source made the active and inactive calls. Rule as the data show it: active = GI50 up to about 1.1 µM and inactive = higher.
Measurement Label: GI50

Query: What value of GI50 has been reported for the following molecule? CCN(CC)c1ccc(/N=N/c2ccc(-c3nc4cccnc4o3)cc2)cc1
Reply: > 100 µM (inactive)

Query: Entry CC(C)CC1NC(=O)C(C(C)C)NC(=O)CC(C)COC(=O)C(CC(C)C)N(C)C(=O)C(C(C)C)NC(=O)C(C(C)C)OC1=O (stereo unspecified) : reported GI50 = ?
Reply: 17.1 µM (inactive)

Query: GET /values?readout=GI50&item= O=C(c1ccccc1)N1CCN(C(=S)N(C(=O)c2ccccc2)c2ccccc2)C1=S
Reply: 13.3 µM (inactive)

Query: Please give the measured GI50 for this molecule: CN1COCN/C1=N/C#N
Reply: > 100 µM (inactive)

Query: Form field: reported GI50 of CC1=NCCc2cc3[nH]c4ccccc4c3cc21
Reply: 49.1 µM (inactive)

Query: Recorded GI50 for O=C1C=CC(=O)C12CCc1ccccc12 , please?
Reply: > 100 µM (inactive)

---

System: MDA-MB-435
Protocol: NCI tumour cell line growth inhibition, 48 h
Activity calls are given as the source filed them. Rule as the data show it: active = GI50 up to about 1.1 µM and inactive = higher.
Provide the reported GI50 of each item.

Query: Entry Cc1cc(NS(=O)(=O)c2ccc(NC(=O)c3ccc4nc5ccccc5c(Nc5ccc(S(N)(=O)=O)cc5)c4c3)cc2)no1 , system MDA-MB-435: what GI50 was measured?
Reply: 21.4 µM (inactive)

Query: Request body: readout GI50, system MDA-MB-435, query O=c1oc2ccccc2cc1-c1nnc(-c2ccccc2)s1 . Return the value.
Reply: 1.65 µM (inactive)

Query: Lab note: need GI50 with MDA-MB-435 for entry NC(=O)c1cn(C2OC(CO)C(O)C2O)c2nc[n+]([O-])c(N)c12 (stereo unspecified) , please look it up.
Reply: 0.167 µM (active)

Query: So what GI50 did c1ccc(/N=C2\SC(=NNc3ccccc3)S\C2=N/c2ccccc2)cc1 get with MDA-MB-435?
Reply: 35.6 µM (inactive)

Query: Identify the measured GI50 of CN1CCN(CCCNN)CC1 for MDA-MB-435.
Reply: > 100 µM (inactive)

Query: Look up GI50 with MDA-MB-435 for this compound: CC1=CC(=O)/C(=C/NC(=S)NCc2ccccc2)C(=O)O1
Reply: > 100 µM (inactive)

---

Give GI50 for every item shown.
System: Malme-3M
Protocol: NCI tumour cell line growth inhibition, 48 h
The source made the active and inactive calls. Rule as the data show it: active = GI50 up to about 1.1 µM and inactive = higher.

Query: What value of GI50 has been reported for the following compound? COc1ccc(C(O)c2cc(OC)c(OC)c(OC)c2)cc1 (stereo not drawn)
Reply: 23.7 µM (inactive)

Query: Quick one: GI50 of COc1c2c(cc3c1C1(O)Cc4ccc5c(c4C[N+]1(C)CC3)OCO5)OCO2 (stereo not drawn) ?
Reply: > 100 µM (inactive)

Query: Which measured GI50 value corresponds to O=Cc1[nH]c2ccccc2c1Br ?
Reply: 18.5 µM (inactive)

Query: Item under review: Sc1ncc2[nH]nnc2n1 . Reported GI50?
Reply: > 100 µM (inactive)

Query: Record request: GI50 value, item Nc1nccc2c1ncn2C1C=C(CO)C(O)C1O (stereo not drawn)
Reply: 43.6 µM (inactive)

Query: What GI50 value was documented for this compound, Oc1ccc(Br)cc1/C=N/c1ccc(/N=C/c2cc(Br)ccc2O)cc1 ?
Reply: > 100 µM (inactive)

Query: Param item = CCCCCCOc1ccc(NC2=C(Cl)C(=O)c3c(O)ccc(O)c3C2=O)cc1 ; retrieve measured GI50.
Reply: 1.83 µM (inactive)

Query: // returns reported GI50 for input CC(=O)OCC1OC(n2ncc(=O)[nH]c2=O)C(OC(C)=O)C1OC(C)=O (stereo not drawn)
Reply: > 100 µM (inactive)

Query: Any idea what its GI50 is? The compound is O=c1ccn([C@@H]2C=C(CO)[C@@H](O)[C@H]2O)c(=O)[nH]1
Reply: > 625 µM (inactive)

Query: Fill in: GI50 of Cc1ccc(N2CCc3c(C)c(C#N)c4nc5ccccc5n4c32)cc1 is ___
Reply: > 100 µM (inactive)

Query: Tell me the measured GI50 of COC(=O)C1(C)CCCC2(C)C3CCC4CC3(C=C4CO)CCC12 (stereo not drawn) , please.
Reply: 27 µM (inactive)

Query: Endpoint output: GI50 of O=c1cnn(C/C=C/CBr)c(=O)[nH]1 . Value?
Reply: 16.4 µM (inactive)

Query: What GI50 value was documented for this compound, O/N=C1\C(=C\c2ccc3c(c2)OCCO3)CCCC1C(NO)c1ccc2c(c1)OCCO2 (stereo not drawn) ?
Reply: 25.4 µM (inactive)

Query: Any idea what its GI50 is? The compound is O=C(O)Cc1ccc2c(c1O)C(=O)c1c(ccc(CC(=O)O)c1O)C2=O
Reply: > 100 µM (inactive)

Query: Sample O=C1c2c(Br)sc(Br)c2[C@@H](O)[C@H]1O — what was its GI50?
Reply: 20.4 µM (inactive)

Query: Find the recorded GI50 belonging to CCOC(=O)/C(C#N)=C(/NNc1ccccc1)c1ccncc1C(=O)O and report it.
Reply: > 100 µM (inactive)

Query: # GI50 lookup, item CCCCCCCCCCCCOC(=S)NCCCC
Reply: 26.6 µM (inactive)

Query: Report GI50 for CC1CCCC2(O1)OC1CC(=O)OC1C1=C2C(=O)c2ccccc2C1=O (stereo not drawn) please.
Reply: 2.45 µM (inactive)

Query: If you can, please state the reported GI50 value of COC(=O)c1ccccc1C1CN=NC12Cc1c(ccc3c1CCC3)C2=O (stereo not drawn) .
Reply: > 100 µM (inactive)

Query: What value of GI50 has been reported for the following compound? COc1cc2cc(C(=O)N3CC(CCl)c4ccc([N+](C)(C)Cc5ccccc5[N+](=O)[O-])cc43)[nH]c2c(OC)c1OC (stereo not drawn)
Reply: 1.73 µM (inactive)

Query: What value of GI50 has been reported for the following compound? O=[N+]([O-])C(/C(Cl)=C(\Cl)Br)=C(/Cl)SCc1ccccc1
Reply: 6.31 µM (inactive)

Query: GI50 lookup needed for Cn1c(SCc2ccc(F)cc2)nnc1C12CC3CC(CC(C3)C1)C2 , thanks.
Reply: 19.5 µM (inactive)

Query: Fill in: GI50 of CC(=O)c1ccc2c(c1)CC1(C2)Cc2ccccc2C1=O (stereo not drawn) is ___
Reply: 28.4 µM (inactive)

The origin of these recorded values is ChEMBL document CHEMBL1201862.
